test system: CAKI-1; assay: NCI tumour cell line growth inhibition, 48 h
Active and inactive are the calls of the source. Cut-off read from the data, not from the text of the source: active = GI50 up to about 1.1 µM and inactive = higher.
Listing of recorded GI50 by entry.
OBSERVATION TYPE: GI50

1) Cc1c(N2C(=O)/C(=C/c3ccc(N(CCC#N)CCC#N)cc3)N=C2c2ccccc2)c(=O)n(-c2ccccc2)n1C	> 100 µM (inactive)
2) N#C/C(=C\c1cn(Cc2ccccc2)c2ccccc12)c1nn(-c2ccccc2)c(N)c1C#N	17.4 µM (inactive)
3) O=C(Sc1n[nH]c(=O)[nH]c1=O)c1cccc2nc3ccccc3nc12	78.3 µM (inactive)
4) O=C1CCCC/C1=C1/SC(=N/c2ccccc2)/C(=N\c2ccccc2)N1c1ccccc1	> 100 µM (inactive)
5) NC1CC(=O)c2c1sc(Cl)c2Cl (stereo not given)	> 100 µM (inactive)
6) COC(=O)C(CC(=O)Nc1ccc(Cl)c(Cl)c1)C(=O)C(=O)Nc1ccc(Cl)c(Cl)c1 (stereo not given)	> 100 µM (inactive)
7) CN[C@@H](C)[C@@H](N)c1ccccc1	> 100 µM (inactive)
8) OC(C1=C/C(=C\c2ccncc2)c2ccccc21)c1ccncc1 (stereo not given)	7.83 µM (inactive)
9) CCOc1ccc(NC(=S)N/C=C(/C(C)=O)C(=O)Nc2ccccc2C)cc1	> 100 µM (inactive)
10) Cc1[nH]c2ccccc2c1C1Cc2ccccc2N1C(=O)/C=C/C=C/c1ccccc1 (stereo not given)	> 100 µM (inactive)
11) Cc1ccc(C(C2C(=O)N(C)C(=O)N(C)C2=O)C(F)(F)C(=O)N(C)C)cc1 (stereo not given)	> 100 µM (inactive)
12) C=C1CC(CC)(CCN2C(=O)c3ccccc3C2=O)OC1=O (stereo not given)	2.09 µM (inactive)
13) C1CSCCSCCSCCSC1	> 100 µM (inactive)
14) CC1(C)C(=O)N(O)C(C)(C)N1N=O	> 10 µM (inactive)
15) COc1cccc(C2c3cc4c(cc3OC(NNS(=O)(=O)c3ccc(C)cc3)C2C)OCO4)c1O (stereo not given)	24.2 µM (inactive)
16) O=CC(NC(=O)N(CCCl)N=O)C(O)C(O)C(O)CO (stereo not given)	798 µM (inactive)
17) COC(=O)N/N=C(\C)C(CN1CCOCC1)C(c1ccccc1)c1cc2ccccc2oc1=O (stereo not given)	> 100 µM (inactive)
18) CCCC1C2=C(C(=O)OC2=O)C2C(CC)CC3=C(C(=O)OC3=O)C12 (stereo not given)	> 100 µM (inactive)
19) CCCCCC(C(O)C#N)C(O)(C(F)(F)F)C(F)(F)F (stereo not given)	> 10 µM (inactive)
20) COc1ccc2nc3c4c(nccc4c2c1)-c1ncccc1C3=O	0.109 µM (active)
21) Cc1cc2c(c(C(=O)O)c1C)-c1cccc(F)c1C2=O	> 100 µM (inactive)
22) O=C(CC(C(=O)c1ccoc1)c1ccco1)c1ccco1 (stereo not given)	> 100 µM (inactive)
23) COc1ccc2c(O)c(S(=O)(=O)c3ccc(C)cc3)c(=O)oc2c1OC	> 100 µM (inactive)
24) CC(C)(C)OC(=O)N/N=C(/N)Cc1ccc(Cl)cc1	> 100 µM (inactive)
25) COC1(OC)CC(CO)(CNc2nc(N)nc(Cl)c2/C=N\O)C1	57.4 µM (inactive)
26) CC#CC(OCC)(OCC)OCC	> 100 µM (inactive)
27) Clc1cc(Cl)c2cc3cccc[n+]3cc2c1Cl	6.17 µM (inactive)
28) CN1CCN(c2ccc3nc(C4=C(O)C(=O)[C@@H]5C(=C4O)N=C(CO)N5C)[nH]c3n2)CC1	> 100 µM (inactive)
29) CC1=NNC(=O)C1C1C=C(c2c[nH]c3ccccc23)OC1=O (stereo not given)	> 100 µM (inactive)
30) CCCCNC(=O)c1cc(S(=O)(=O)n2ccnc2O)c(SC)cc1Cl	> 100 µM (inactive)
31) COc1cccc(C2c3cc4c(cc3OC(C)(N3CCCC3)C2C)OCO4)c1O (stereo not given)	5.83 µM (inactive)
32) [N-]=[N+]=NCC(O)Cn1cnc2c(NC(=O)c3ccccc3)ncnc21 (stereo not given)	> 100 µM (inactive)
33) CN(CCO)c1nc2c(c(=O)[nH]1)CNCC2	> 100 µM (inactive)
34) CCCC(=O)Nc1cc(/C=C/C(=O)N2CC(CCl)c3ccc(N)cc32)n(C)c1 (stereo not given)	0.0441 µM (active)
35) CC1=C(C(=O)Nc2ccccc2C)C(c2ccccc2O)C(C(=O)Nc2ccccc2C)=C(C)N1	23.4 µM (inactive)
